target: Mu-type opioid receptor (Rattus norvegicus, UniProt P33535); test: Inhibition of [3H]- ]DAMGO binding to opioid receptor mu from rat brain membrane
Sequence (P33535 whole entry): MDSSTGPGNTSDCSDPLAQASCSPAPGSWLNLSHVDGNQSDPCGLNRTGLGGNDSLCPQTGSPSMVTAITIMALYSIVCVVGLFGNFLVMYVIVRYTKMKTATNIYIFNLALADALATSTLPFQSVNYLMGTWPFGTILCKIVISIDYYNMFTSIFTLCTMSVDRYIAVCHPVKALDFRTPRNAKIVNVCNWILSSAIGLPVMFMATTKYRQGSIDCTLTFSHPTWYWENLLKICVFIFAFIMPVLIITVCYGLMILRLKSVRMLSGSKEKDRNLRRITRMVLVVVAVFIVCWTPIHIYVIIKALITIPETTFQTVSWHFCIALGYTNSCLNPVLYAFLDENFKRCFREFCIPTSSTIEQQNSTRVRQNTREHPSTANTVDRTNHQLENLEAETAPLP
Consider the following compounds; for each one, report its pKi.
On this scale, pKi is minus log10 of a concentration expressed in M (mol/L).

Query string: I have this compound here, `CC(C)[C@H](NC(=O)[C@H](CC(=O)O)NC(=O)[C@H](Cc1ccccc1)NC(=O)[C@@H](C)NC(=O)[C@@H](N)Cc1ccc(O)cc1)C(=O)N[C@H](C(=O)NCC(N)=O)C(C)C` , and I need its recorded pKi.
Result string: 6.58

Query string: Data request, read-out pKi, for CC(C)[C@H](NC(=O)[C@H](CC(=O)O)NC(=O)C1(NC(=O)[C@@H](C)NC(=O)[C@@H](N)Cc2ccc(O)cc2)CCc2ccccc2C1)C(=O)N[C@H](C(=O)NCC(N)=O)C(C)C (stereo in doubt; 3)
Result string: 5.85
